# system.tested: human TLR8 (Homo sapiens)
# Construct: host or cells: HEK-Blue 293 cells expressing human TLR8
# Sequence (Q9NR97 27-1041): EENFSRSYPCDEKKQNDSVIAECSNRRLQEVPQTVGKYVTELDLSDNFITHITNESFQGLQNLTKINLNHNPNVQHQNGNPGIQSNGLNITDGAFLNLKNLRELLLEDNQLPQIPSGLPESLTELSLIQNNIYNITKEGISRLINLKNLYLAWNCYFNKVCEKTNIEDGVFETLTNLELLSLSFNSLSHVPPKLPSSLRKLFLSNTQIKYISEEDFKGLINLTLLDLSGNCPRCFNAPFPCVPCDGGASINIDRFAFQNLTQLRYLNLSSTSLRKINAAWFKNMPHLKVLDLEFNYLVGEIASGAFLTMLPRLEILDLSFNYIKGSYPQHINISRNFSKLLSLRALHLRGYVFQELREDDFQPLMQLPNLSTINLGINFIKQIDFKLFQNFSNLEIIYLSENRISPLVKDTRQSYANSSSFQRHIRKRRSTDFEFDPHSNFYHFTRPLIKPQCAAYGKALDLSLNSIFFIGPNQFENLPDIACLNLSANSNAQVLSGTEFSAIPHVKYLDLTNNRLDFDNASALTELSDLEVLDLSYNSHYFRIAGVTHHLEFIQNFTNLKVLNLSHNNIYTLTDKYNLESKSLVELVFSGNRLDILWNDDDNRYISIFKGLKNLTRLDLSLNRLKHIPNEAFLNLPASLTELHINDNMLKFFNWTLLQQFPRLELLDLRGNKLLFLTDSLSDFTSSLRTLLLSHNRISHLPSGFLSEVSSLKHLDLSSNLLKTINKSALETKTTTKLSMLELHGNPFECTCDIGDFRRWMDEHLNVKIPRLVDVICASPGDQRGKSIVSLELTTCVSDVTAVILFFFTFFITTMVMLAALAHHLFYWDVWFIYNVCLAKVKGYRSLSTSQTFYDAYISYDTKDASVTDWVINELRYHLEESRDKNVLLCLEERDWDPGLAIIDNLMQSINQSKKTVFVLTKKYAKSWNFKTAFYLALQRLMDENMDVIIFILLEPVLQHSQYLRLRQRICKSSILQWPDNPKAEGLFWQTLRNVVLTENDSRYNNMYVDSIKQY
# test: Cell-based TLR 7/8 assay, HEK-Blue TLR8 cells (SEAP reporter)
# measurement.setup: based on Compound concentration only; Compounds formulated as SNEs; read-out: huTLR8 EC50 (converted)
Hi! Just check whether EC50 is below 1000 nM. Below gives criterion met, equal or above gives criterion not met.

-- ask Hello, I'm reviewing records and need to know if EC50 of CCCCC/C=C\C/C=C\CCCCCCCCC(CCCCCCCC/C=C\C/C=C\CCCCC)OC(=O)NCCCCN(C)Cc1cc(OC)c(Cn2cc3nc(N)nc(NCCCC)c3n2)c(OC)c1 is below 1000 nM. Could you check?
-- reply criterion not met

-- ask Hello, I'm reviewing records and need to know if EC50 of CCCCCCCCCCCCCCCCCC(=O)NCCCCN(C)Cc1cc(OC)c(Cn2cc3nc(N)nc(NCCCC)c3n2)c(OC)c1 is below 1000 nM. Could you check?
-- reply criterion not met

-- ask Hello, I'm reviewing records and need to know if EC50 of CCCCCCCC/C=C\CCCCCCCC(=O)NCCCCN(C)Cc1cc(OC)c(Cn2cc3nc(N)nc(NCCCC)c3n2)c(OC)c1 is below 1000 nM. Could you check?
-- reply criterion met

-- ask Hello, I'm reviewing records and need to know if EC50 of CCCCCCCCCCCCCCCCCC(=O)NCCCCC(=O)N1CCCN(c2ccc(Cn3cc4nc(N)nc(NCCCC)c4n3)c(OC)c2)CC1 is below 1000 nM. Could you check?
-- reply criterion not met

-- ask Hello, I'm reviewing records and need to know if EC50 of CCCCCCCCCCCCCCCCCC(=O)NC1CC(CC(=O)N2CCN(c3ccc(Cn4cc5nc(N)nc(NCCCC)c5n4)c(OC)c3)CC2)C1 (stereo not drawn) is below 1000 nM. Could you check?
-- reply criterion not met

-- ask Hello, I'm reviewing records and need to know if EC50 of CCCCC/C=C\C/C=C\CCCCCCCC(=O)NCCCCC(=O)N1CCN(c2ccc(Cn3cc4nc(N)nc(NCCCC)c4n3)c(OC)c2)CC1 is below 1000 nM. Could you check?
-- reply criterion met
